- measured.target: T1, biotinylated recombinant human IL-12Rβ2 (human, UniProt Q99665 24-622, random biotinylated)
- T1 construct: Recombinant protein produced in-house; also called hIL-12RB2; human IL-12RB2
- T1 sequence: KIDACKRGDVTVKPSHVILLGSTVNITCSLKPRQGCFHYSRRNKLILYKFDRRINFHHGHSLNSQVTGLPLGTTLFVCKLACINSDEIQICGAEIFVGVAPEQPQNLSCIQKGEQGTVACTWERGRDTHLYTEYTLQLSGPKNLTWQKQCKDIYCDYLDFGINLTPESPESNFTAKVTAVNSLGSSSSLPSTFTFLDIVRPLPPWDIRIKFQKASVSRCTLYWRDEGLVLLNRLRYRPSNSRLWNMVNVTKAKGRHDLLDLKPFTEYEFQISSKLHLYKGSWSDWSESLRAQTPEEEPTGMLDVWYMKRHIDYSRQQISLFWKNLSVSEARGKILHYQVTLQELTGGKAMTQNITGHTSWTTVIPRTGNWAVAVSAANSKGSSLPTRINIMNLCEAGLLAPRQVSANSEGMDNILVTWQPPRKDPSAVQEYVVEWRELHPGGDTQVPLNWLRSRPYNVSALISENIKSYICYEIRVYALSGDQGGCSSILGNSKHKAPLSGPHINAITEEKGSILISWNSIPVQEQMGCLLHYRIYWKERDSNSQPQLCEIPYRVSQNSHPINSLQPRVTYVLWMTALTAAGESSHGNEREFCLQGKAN
- run.description: BLI, P.E., off-rate ranking

binder | Response
anti-IL-12Rβ2 VHH clone 2CAH27 (clone ID 20354) (VHH, not shown: small tags and cut ends, periplasmic extract) VHH: QVQLQESGGGSVQSGGSLRLSCVASGRTFSSYAMGWFRQGPGKEREFVAAISWSGVSIYYADSVKGRFTISRDNAKNTVYLQMNSLEPEDTAVYYCAGTEGAYTVAGGSTFGYDMDYWGKGTQVTVSS | 0.482
anti-IL-12Rβ2 VHH clone 2CRH73 (clone ID 20369) (VHH, not shown: small tags and cut ends, periplasmic extract) VHH: QVQLQESGGGLVQAGGSLRLTCTASGSAALIFLMSWYRQAPGKQRELVAEVSRRGSTTYADSVEGRFTISRDNAKNIVDLQMNSLKPEDTAVYYCKADQYYGDSLRSSWGRGTQVTVSS | 0.547

// data source = patent US20260209362A1
